Tested on: MDA-MB-435
Test summary: NCI drug screen, MDA-MB-435
Type: cell-based, human
Experimental parameters: MDA-MB-435 (Melanoma); 1.00E−5 Molar
Readout: Growth Percent (%)
Give the value in % but do not write % after it.

Ask | Field request: Growth Percent | item: Cc1ccc(C(=O)Nc2c(NC(=O)CN3CCCC3)ccc3c2C(=O)c2ccccc2C3=O)cc1
Reply | 79.14

Ask | Field request: Growth Percent | item: O=C(CCl)Nc1ccc2c(c1NC(=O)Cc1ccccc1)C(=O)c1ccccc1C2=O
Reply | 80.40

Ask | Field request: Growth Percent | item: Cc1ccc(C(=O)Nc2c(NC(=O)CN3CCN(C)CC3)ccc3c2C(=O)c2ccccc2C3=O)cc1
Reply | 11.15

Ask | Field request: Growth Percent | item: Cc1ccc(C(=O)Nc2c(NC(=O)CCl)ccc3c2C(=O)c2ccccc2C3=O)cc1
Reply | 4.82
